system: rat; experiment: Conditioned Avoidance Responding in Rat; assay type: in vivo, rat (male CDF); conditions: inhibition of conditioned avoidance responding, oral, tested 30-360 minutes after administration, % of vehicle control, read-out: Peak ED50
result-type: ED50

# molecule, observed-result
data = [
    ("Cc1cc2c3c(c1)c1c(n3-c3ccc(C(F)(F)F)cc3NC2)CCN(C)C1 [Example 25]", "≤ 20 mg/kg"),
    ("Cc1cc2c3c(c1)c1c(n3-c3ccc(C(F)(F)F)cc3NC2=O)CCN(C)C1 [Example 3]", "20 to 50 mg/kg"),
    ("Cc1cc2c3c(c1)c1c(n3-c3ccc(Cl)cc3NC2)CCN(C)C1 [Example 23]", "≤ 20 mg/kg"),
]

// below: ED50 requested for another molecule
get_value(item= Cc1cc2c3c(c1)c1c(n3-c3ccc(Cl)cc3NC2=O)CCN(C)C1 [Example 1] , readout=ED50) returns ≤ 20 mg/kg
